# Method Notes: Inhibitory concentration to reduce cell number to 50% of Murine P388 leukemia cell culture
# Format: functional, Mus musculus
# IC50 annotations
The reply should contain only the number, in nM.

- CN(C)CCNC(=O)c1cccc2cc3c(nc12)-c1ccccc1C3=O: 130
- CN(C)CCNC(=O)c1cc(Cl)cc2nc3oc4ccccc4c3nc12: 5800
- COc1cccc2c1C(=O)c1c(O)c3c(c(O)c1C2=O)C[C@@](O)(C(=O)CO)C[C@@H]3O[C@H]1C[C@H](N)[C@H](O)[C@H](C)O1: 15

Please report the measured IC50 for CN(C)CCNC(=O)c1cccc2cc3c(nc12)-c1ccccc1S3(=O)=O
1800

Supply reported IC50 belonging to this molecule: CN(C)CCNC(=O)c1cccc2nc3c(nc12)-c1ccccc1C3=O
700

Give the measured IC50 for CN(C)CCNC(=O)c1cc(Cl)cc2[nH]c3c4ccccc4nc-3nc12
15000

Give reported IC50 value for CN(C)CCNC(=O)c1cc(Cl)cc2[nH]c3nc4ccccc4c-3nc12
1600
